Hi there, I'd appreciate the recorded pEC50 for every entry that follows.
Tested on: A/Lyon/969/09 (H1N1)pdm09 virus
protocol: microbe, parasite or virus in culture
Format: cell-based, influenza A(H1N1)pdm09 virus
measurement-setup: Influenza A virus, H1N1, 48 h; pre-treatment/treatment in vitro; A549; […]; read-out: EC50
Give bare numbers, as −log10 of the molar value.

# compound, measured-property, observed-measurement
records = [
    ("C[C@H](CCC(=O)O)[C@H]1CC[C@H]2[C@@H]3[C@@H](O)C[C@@H]4C[C@H](O)CC[C@]4(C)[C@H]3CC[C@]12C", "pEC50", 9.21),
    ("Nc1nc(=O)c2nc(CNc3ccc(C(=O)N[C@@H](CCC(=O)O)C(=O)O)cc3)cnc2[nH]1", "pEC50", 9.66),
    ("CCNCC(O)c1cccc(O)c1 (stereo not shown)", "pEC50", 9.47),
    ("Nc1[nH]c(=O)ncc1F", "pEC50", 8.69),
]

Items follow; give pEC50 for each.
1. CNC(=C[N+](=O)[O-])NCCSCc1ccc(CN(C)C)o1
2. N=C(N)NC(=O)c1nc(Cl)c(N)nc1N [Amiloride]
3. O=NN(CCCl)C(=O)NCCCl
4. O=C(O)Cc1ccc(-c2ccccc2)cc1
5. CC(C)NCC(O)COc1cccc2[nH]ccc12 (stereo not shown)
6. CC[C@H]1OC(=O)[C@H](C)[C@@H](O[C@H]2C[C@@](C)(OC)[C@@H](O)[C@H](C)O2)[C@H](C)[C@@H](O[C@@H]2O[C@H](C)C[C@H](N(C)C)[C@H]2O)[C@](C)(O)C[C@@H](C)/C(=N\OCOCCOC)[C@H](C)[C@@H](O)[C@]1(C)O
7. COc1cc(NS(=O)(=O)c2ccc(N)cc2)nc(OC)n1
8. c1ccc(CC2=NCCN2)cc1

OUTPUT:
[9.17, 9.39, 10.15, 7.46, 9.10, 9.85, 9.16, 9.03]

Give measured pEC50 for every item shown.
1. O=c1cc(-c2ccc(O)cc2)oc2cc(O)cc(O)c12
2. CCN(CC)CCOC(=O)C(c1ccccc1)c1ccccc1
3. CN(C)CCN(Cc1ccc(Cl)cc1)c1ccccn1
4. COc1cc(NS(=O)(=O)c2ccc(N)cc2)ncn1
5. OC(CCN1CCCCC1)(c1ccccc1)C1CC2C=CC1C2 (stereo not shown)
6. CC(=O)O[C@H]1C[C@@]2(C)[C@@H](C[C@@H](O)[C@H]3[C@@]4(C)CC[C@@H](O)[C@@H](C)[C@@H]4CC[C@@]32C)/C1=C(\CCC=C(C)C)C(=O)O

OUTPUT:
1: 9.68; 2: 8.20; 3: 10.15; 4: 9.55; 5: 9.42; 6: 10.42

Please give pEC50, item by item, for the list that follows.
1. O=c1c(-c2ccc(O)cc2)coc2cc(O)cc(O)c12
2. CNC(C)C1CCC(N)C(OC2C(N)CC(N)C(OC3OCC(C)(O)C(NC)C3O)C2O)O1 (stereo not shown)
3. COc1ccc([C@@H]2Sc3ccccc3N(CCN(C)C)C(=O)[C@@H]2OC(C)=O)cc1
4. CC[C@@]1([C@@H]2O[C@@H]([C@H]3O[C@@](O)(CO)[C@H](C)C[C@@H]3C)C[C@@H]2C)CC[C@H]([C@]2(C)CC[C@]3(C[C@H](O)[C@@H](C)[C@@H]([C@@H](C)[C@@H](OC)[C@H](C)C(=O)O)O3)O2)O1

OUTPUT:
8.97
10.41
9.08
8.49

Hey, just so you know, these numbers are from paper PMC6361841.
